# target or system: GABA-A receptor; alpha-3/beta-3/gamma-2 (Homo sapiens, UniProt P18507+P28472+P34903)
# protocol text: Binding affinity measured using LtK- cell membranes expressing GABA alpha-3-beta-3-gamma-2 receptor
measurement kind: Ki (nM)
The figure you give is taken to be in nM; do not add the unit.

Prompt: Answer with the recorded Ki of `CCCOc1ccc2[nH]c3cnc(N)c(COC)c3c2c1` only.
Response: 700

Prompt: Provide measured Ki value, entry: `CC(C)COc1cc2c(cn1)[nH]c1ccccc12`
Response: 139

Prompt: Fill in Ki for record `CCOC(=O)c1[nH]cc2nc3ccc(OCc4cccc5ccccc45)cc3c-2c1CC`
Response: 300

Prompt: Give reported Ki value for `CCCCCCCCOc1ccc2[nH]c3cnc(C(=O)OCC)c(CC)c3c2c1`
Response: 35000

Prompt: Identify the reported Ki for the following entry. `CCCOc1ccc2[nH]c3cnc(OCCC)c(COC)c3c2c1`
Response: 270

Prompt: Output measured Ki for this item: `CCCCOc1cc2c(cn1)[nH]c1ccccc12`
Response: 245

Prompt: Please supply the value of reported Ki for the item `COCc1c(N=C=S)[nH]cc2nc3ccc(OCc4ccccc4)cc3c1-2`
Response: 58.8

Prompt: Please list Ki recorded for the molecule `Cc1nnc2ccc(-c3cccc(C(F)(F)F)c3)nn12`
Response: 1160

Prompt: Look up and state reported Ki for `CCOC(=O)c1[nH]cc2nc3ccc(OCc4ccccc4)cc3c-2c1CC`
Response: 58.7

###

# target or system: GABA-A receptor; alpha-3/beta-3/gamma-2 (Homo sapiens, UniProt P18507+P28472+P34903)
# Sequence (P18507 whole entry): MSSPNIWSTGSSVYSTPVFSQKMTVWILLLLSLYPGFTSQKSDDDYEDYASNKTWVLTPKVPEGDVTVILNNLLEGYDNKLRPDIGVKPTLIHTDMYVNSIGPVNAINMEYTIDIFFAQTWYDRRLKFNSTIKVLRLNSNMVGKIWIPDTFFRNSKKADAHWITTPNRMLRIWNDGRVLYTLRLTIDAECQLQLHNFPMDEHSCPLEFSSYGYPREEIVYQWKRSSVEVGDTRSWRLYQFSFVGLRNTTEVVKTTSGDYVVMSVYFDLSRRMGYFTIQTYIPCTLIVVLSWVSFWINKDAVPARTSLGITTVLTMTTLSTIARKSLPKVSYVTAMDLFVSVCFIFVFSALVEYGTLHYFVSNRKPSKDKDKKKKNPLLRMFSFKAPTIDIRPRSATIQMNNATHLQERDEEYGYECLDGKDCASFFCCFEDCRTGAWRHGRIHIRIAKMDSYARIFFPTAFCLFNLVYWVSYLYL
# Sequence (P28472 whole entry): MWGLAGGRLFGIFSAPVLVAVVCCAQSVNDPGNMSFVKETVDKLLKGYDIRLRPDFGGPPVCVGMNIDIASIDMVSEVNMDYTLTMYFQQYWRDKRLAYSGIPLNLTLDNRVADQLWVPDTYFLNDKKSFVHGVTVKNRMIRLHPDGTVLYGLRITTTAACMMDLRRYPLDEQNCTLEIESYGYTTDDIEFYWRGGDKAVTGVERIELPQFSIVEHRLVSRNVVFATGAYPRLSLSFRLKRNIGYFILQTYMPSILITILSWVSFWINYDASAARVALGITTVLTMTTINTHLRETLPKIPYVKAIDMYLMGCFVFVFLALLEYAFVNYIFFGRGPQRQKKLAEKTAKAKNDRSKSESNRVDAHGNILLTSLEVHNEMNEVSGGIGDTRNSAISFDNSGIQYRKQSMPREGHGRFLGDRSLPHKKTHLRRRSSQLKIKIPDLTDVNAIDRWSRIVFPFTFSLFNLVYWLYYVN
# Sequence (P34903 whole entry): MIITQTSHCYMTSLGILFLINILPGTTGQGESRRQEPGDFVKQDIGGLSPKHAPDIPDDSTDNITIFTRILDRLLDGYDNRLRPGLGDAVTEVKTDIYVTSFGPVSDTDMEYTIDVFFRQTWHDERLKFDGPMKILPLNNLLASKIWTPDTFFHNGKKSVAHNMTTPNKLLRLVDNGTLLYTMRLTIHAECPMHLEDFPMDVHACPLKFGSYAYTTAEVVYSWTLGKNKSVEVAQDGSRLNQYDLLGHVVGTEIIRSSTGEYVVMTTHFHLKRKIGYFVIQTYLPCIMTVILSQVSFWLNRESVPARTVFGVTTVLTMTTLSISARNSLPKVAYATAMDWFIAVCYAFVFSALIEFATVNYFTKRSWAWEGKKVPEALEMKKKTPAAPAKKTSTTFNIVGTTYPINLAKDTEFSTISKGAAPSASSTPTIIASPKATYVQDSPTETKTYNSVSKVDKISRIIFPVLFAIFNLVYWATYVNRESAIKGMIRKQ
# protocol text: Binding affinity measured using LtK- cell membranes expressing GABA alpha-3-beta-3-gamma-2 receptor
measurement kind: pKi
Scale: negative log10 of molar concentration, which is what pKi denotes.

Prompt: Tell me its pKi given COCc1c(C(=O)OC(C)C)ncc2[nH]c3ccc(OCc4ccccc4)cc3c12 [ABECARNIL] as the entry.
Response: 8.12

Prompt: Tell me measured pKi for `CCCOc1cc2c(cn1)[nH]c1ccccc12` please.
Response: 7.16

###

# target or system: GABA-A receptor; alpha-6/beta-3/gamma-2 (Homo sapiens, UniProt P18507+P28472+Q16445)
# protocol text: Binding affinity measured using LtK- cell membranes expressing Gamma-aminobutyric acid A receptor alpha-6-beta-3-gamma-2
Field: Ki. Provide a value for each of the molecules that follow.

Prompt: For the molecule `CCOC(=O)c1[nH]cc2nc3ccc(OCc4cccc5ccccc45)cc3c-2c1CC` , give its reported Ki.
Response: > 10 µM

Prompt: Recall and state the measured Ki for `CCCOc1ccc2[nH]c3cnc(N)c(COC)c3c2c1` .
Response: > 3 µM

Prompt: # return recorded Ki for input `Cc1nnc2ccc(-c3cccc(C(F)(F)F)c3)nn12`
Response: > 10 µM

Prompt: Please indicate Ki recorded for `CCOC(=O)c1[nH]cc2nc3ccc(OC)cc3c-2c1COC`
Response: > 10 µM

Prompt: Respond only with Ki recorded for CCC(C)Oc1cc2c3ccccc3nc-2c[nH]1 (stereo not drawn)
Response: > 10 µM

Prompt: Output Ki of `CCOC(=O)c1ncc2[nH]c3ccc(OCc4ccccc4)cc3c2c1COC`
Response: > 1 µM

Prompt: Find the measured Ki of `c1ccc(COc2cc3c4ccccc4nc-3c[nH]2)cc1` and report it.
Response: > 10 µM

Prompt: Item `CCOC(=O)c1[nH]cc2nc3ccc(OCc4ccccc4)cc3c-2c1CC` : provide Ki
Response: > 10 µM

Prompt: Read off the recorded Ki for `COCc1c(N=C=S)[nH]cc2nc3ccc(OCc4ccccc4)cc3c1-2`
Response: > 10 µM

Prompt: Recall and state the measured Ki for `CCCOc1cc2c(cn1)[nH]c1ccccc12` .
Response: > 1 µM

Prompt: Give Ki for `CCCOc1ccc2[nH]c3cnc(OCCC)c(COC)c3c2c1`
Response: > 10 µM

Prompt: Supply Ki value. Item: `COCc1c(C(=O)OC(C)C)ncc2[nH]c3ccc(OCc4ccccc4)cc3c12`
Response: > 10 µM

Prompt: Read the entry `CCOC(=O)c1[nH]cc2nc3ccc(OCc4cccc5ccccc45)cc3c-2c1COC` and write its reported Ki.
Response: > 1 µM

Prompt: Give Ki for the following molecule: `CCOC(=O)c1ncc2[nH]c3ccccc3c2c1COC`
Response: 1.15 µM

Prompt: Output measured Ki for this item: `CCCCCCCCOc1ccc2[nH]c3cnc(C(=O)OCC)c(CC)c3c2c1`
Response: > 30 µM

Prompt: Specify reported Ki for the molecule shown: `CCCCCCCCOc1ccc2[nH]c3cnc(C(=O)OCC)c(COC)c3c2c1`
Response: > 3 µM

Prompt: Answer with the recorded Ki of `CCCCCCCCOc1ccc2c(c1)c1c(COC)c(C(=O)OCC)ncc1n2C` only.
Response: > 3 µM

Prompt: Look up and report measured Ki for this entry: `CC(C)COc1cc2c(cn1)[nH]c1ccccc12`
Response: > 10 µM

###

# target or system: GABA-A receptor; alpha-5/beta-3/gamma-2 (Homo sapiens, UniProt P18507+P28472+P31644)
# protocol text: Binding affinity measured using LtK- cell membranes expressing Gamma-aminobutyric acid A receptor alpha-5-beta-3-gamma-2
measurement kind: pKi
Here pKi is given on a logarithmic scale as minus log10 of the concentration in mol/L.

Prompt: Return the recorded pKi value; entry: `CCc1c(C(=O)OC)ncc2[nH]c3cc(OC)c(OC)cc3c12`
Response: 9.00

Prompt: Return the recorded pKi value; entry: `CC(C)(C)OC(=O)c1cc2c3ccccc3nc-2c[nH]1`
Response: 6.95

Prompt: Determine its reported pKi: `CCOC(=O)c1[nH]cc2nc3ccc(OCc4cccc5ccccc45)cc3c-2c1CC`
Response: 6.57

###

# target or system: GABA-A receptor; alpha-5/beta-3/gamma-2 (Homo sapiens, UniProt P18507+P28472+P31644)
# Sequence (P18507 whole entry): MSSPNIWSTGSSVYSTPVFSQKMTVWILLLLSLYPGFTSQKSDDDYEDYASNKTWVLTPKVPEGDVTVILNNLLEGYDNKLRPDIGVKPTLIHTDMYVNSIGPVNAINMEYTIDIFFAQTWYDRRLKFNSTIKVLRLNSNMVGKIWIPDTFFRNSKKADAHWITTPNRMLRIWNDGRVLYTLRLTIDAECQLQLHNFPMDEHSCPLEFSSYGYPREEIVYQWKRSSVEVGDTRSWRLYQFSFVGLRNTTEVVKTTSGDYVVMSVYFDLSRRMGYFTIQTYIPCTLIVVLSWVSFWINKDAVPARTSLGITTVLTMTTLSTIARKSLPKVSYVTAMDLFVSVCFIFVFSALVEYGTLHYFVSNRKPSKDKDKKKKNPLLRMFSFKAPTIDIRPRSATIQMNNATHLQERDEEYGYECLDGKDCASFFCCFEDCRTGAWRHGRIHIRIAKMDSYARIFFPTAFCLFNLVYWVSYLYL
# Sequence (P28472 whole entry): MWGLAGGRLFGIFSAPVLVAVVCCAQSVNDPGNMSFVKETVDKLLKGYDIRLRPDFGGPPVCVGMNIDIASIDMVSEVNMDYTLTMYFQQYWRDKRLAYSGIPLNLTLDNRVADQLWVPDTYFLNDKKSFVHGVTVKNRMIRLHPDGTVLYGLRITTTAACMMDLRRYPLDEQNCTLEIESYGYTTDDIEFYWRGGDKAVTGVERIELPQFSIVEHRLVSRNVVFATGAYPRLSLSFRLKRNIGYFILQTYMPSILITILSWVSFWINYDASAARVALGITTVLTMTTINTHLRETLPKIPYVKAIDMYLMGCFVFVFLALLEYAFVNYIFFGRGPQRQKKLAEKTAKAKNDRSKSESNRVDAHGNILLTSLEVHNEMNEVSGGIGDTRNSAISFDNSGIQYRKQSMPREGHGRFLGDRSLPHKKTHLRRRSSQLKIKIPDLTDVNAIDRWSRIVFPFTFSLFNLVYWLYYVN
# Sequence (P31644 whole entry): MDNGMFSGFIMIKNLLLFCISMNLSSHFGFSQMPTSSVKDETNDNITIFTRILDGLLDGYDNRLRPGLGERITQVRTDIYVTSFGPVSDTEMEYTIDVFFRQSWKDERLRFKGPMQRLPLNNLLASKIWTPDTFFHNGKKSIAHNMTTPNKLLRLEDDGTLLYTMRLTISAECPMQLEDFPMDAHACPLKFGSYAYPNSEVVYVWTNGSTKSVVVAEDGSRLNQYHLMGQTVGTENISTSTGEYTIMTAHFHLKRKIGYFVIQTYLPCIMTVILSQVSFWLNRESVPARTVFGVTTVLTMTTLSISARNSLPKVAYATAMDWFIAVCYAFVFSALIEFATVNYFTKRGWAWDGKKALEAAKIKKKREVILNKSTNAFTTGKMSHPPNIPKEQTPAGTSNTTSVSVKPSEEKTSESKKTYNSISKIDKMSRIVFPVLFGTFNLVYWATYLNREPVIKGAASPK
# protocol text: Binding affinity measured using LtK- cell membranes expressing Gamma-aminobutyric acid A receptor alpha-5-beta-3-gamma-2
# strict inequality: Ki < 0.2 µM yields y, everything else yields n

Prompt: Say whether its Ki is strictly beneath 0.2 µM. Entry: `CCOC(=O)c1[nH]cc2nc3cc(OC)c(OC)cc3c-2c1CC`
Response: y

Prompt: Below 0.2 µM on Ki? Entry `CCOC(=O)c1[nH]cc2nc3ccc(OCc4ccccc4)cc3c-2c1CC`
Response: y

Prompt: Dear colleague, could you confirm whether Ki of `CC(C)COc1cc2c(cn1)[nH]c1ccccc12` falls below 0.2 µM? Thanks.
Response: n

Prompt: Lab note: Ki threshold 0.2 µM. Does this compound come in strictly under it? `c1ccc(COc2cc3c4ccccc4nc-3c[nH]2)cc1`
Response: n

Prompt: Below 0.2 µM on Ki? Entry `CCCOc1cc2c(cn1)[nH]c1ccccc12`
Response: n

Prompt: Hello, is Ki of the following compound strictly smaller than 0.2 µM? `COCc1c(N=C=S)[nH]cc2nc3ccc(OCc4ccccc4)cc3c1-2`
Response: y
